target: N2.9; assay: FP
Where no end group is shown, it is not given here.
observed.property: pKd
In simple prose, pKd is minus the logarithm base ten of a concentration in moles per litre.

Noted for GYQDYEPEA (also: TAMRA fluorophore, position not given here) [TAMRA-labeled α-synuclein peptide] : its pKd reads 7.55
